The measurements presented in this section are drawn from patent US12187713B2.

Quick list: IC50 per entry.
- Tested target: PD-1/PD-L1 (Homo sapiens (Human))
- Sequence (Q9NZQ7 19-238): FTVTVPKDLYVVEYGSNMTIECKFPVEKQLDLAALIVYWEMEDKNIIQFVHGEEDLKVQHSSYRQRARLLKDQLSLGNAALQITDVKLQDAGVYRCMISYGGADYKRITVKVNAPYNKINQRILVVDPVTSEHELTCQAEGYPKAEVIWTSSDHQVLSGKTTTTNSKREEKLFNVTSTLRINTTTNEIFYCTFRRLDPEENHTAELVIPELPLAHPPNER
- Method notes: PD-1/PD-L1 Binding Assay (Alphascreen)
- Experimental setup: numeric values
Numeric only. Scale: nM

Here are 8 compounds together with their reported answers.
compound="Cc1c(-c2nc3cc(CN(C)[C@@H]4CCC[C@H]4O)c(OC(F)F)cc3o2)cccc1-c1cccc(-c2nc3cc(CN4CCC[C@H]4C(=O)O)c(OC(F)F)cc3o2)c1C [Example 57]" data_value=1.2
compound="Cc1c(-c2nc3cc(CN4CC[C@H]4CO)c(OC(F)F)cc3o2)cccc1-c1cccc(-c2nc3cc(CN4CCC[C@H]4C(=O)O)c(OC(F)F)cc3o2)c1C [Example 31]" data_value=0.5
compound="Cc1cc(-c2cccc(-c3cccc(-c4nc5cc(CN6CCC[C@H]6C(=O)O)c(OC(F)F)cc5o4)c3C)c2C)cc(C)c1CN1CCCC1 [Example 234]" data_value=0.52
compound="Cc1c(-c2nc3ccc(CN4CC(C)(C)C4)cc3o2)cccc1-c1cccc(-c2nc3cc(CN4CCC[C@H]4C(=O)O)c(OC(F)F)cc3o2)c1C [Example 109]" data_value=1.6
compound="Cc1c(-c2ccc(CNCCO)c(F)c2)cccc1-c1cccc(-c2nc3cc(CN4CCC[C@H]4C(=O)O)c(OC(F)F)cc3o2)c1C [Example 239]" data_value=0.99
compound="Cc1c(-c2nc3cc(CN(C)C)c(OC(F)F)cc3o2)cccc1-c1cccc(-c2nc3cc(CN4CCC[C@H]4C(=O)O)c(OC(F)F)cc3o2)c1C [Example 16]" data_value=1.1
compound="Cc1c(-c2nc3cc(CN4CCC(C)(CO)C4)c(OC(F)F)cc3o2)cccc1-c1cccc(-c2nc3cc(CN4CCC[C@H]4C(=O)O)c(OC(F)F)cc3o2)c1C (stereo partly drawn) [Example 77]" data_value=1.2
compound="Cc1c(-c2nc3cc(CN4CCC[C@H]4C(=O)O)c(OC(F)F)cc3o2)cccc1-c1cccc(NC(=O)c2ccc(CNCCO)cn2)c1Cl [Example 302]" data_value=0.29

Now consider a different compound.
Which IC50 is reported for this compound? COc1nc(-c2cccc(-c3cccc(-c4nc5cc(CN6CCC[C@H]6C(=O)O)c(OC(F)F)cc5o4)c3C)c2C)ccc1CN1CC[C@H](C)C1 [Example 246]
1.8
